Test system: MARIMO
Experiment: cell viability relative to vehicle control; higher = less cytotoxic;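 also: after 48 h exposure read by CellTiter-Glo luminescence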
Conditions: 10 µM; SRSF2 genotype: SRSF2 P95H/wt
Structures can show the parent of a compound that is named as a salt.
Note to self: cell viability under 80% means class 1, ties and anything higher get class 0.

NCCOCCOCCNC(=O)Cc1ccc(Nc2nc(NCc3ccc(F)cc3)nc(NCC3CCCCC3)n2)cc1 [AP-III-a4 (ENOblock)]: class 0
C1CNCCNCCNCCN1: class 0

Strictly below 80% in cell viability? CC(=O)Nc1nc(-c2cccc(NS(=O)(=O)c3cccc4c(N(C)C)cccc34)c2)cs1
class 1

Another: Cn1cc(C2=C(c3cn(CCCSC(=N)N)c4ccccc34)C(=O)NC2=O)c2ccccc21 [Ro 31-8220 Mesylate]
class 1

Try the compound Cc1c(Nc2ncccc2C(=O)O)cccc1C(F)(F)F
class 0

====

Tested on: MARIMO
Experiment: cell viability relative to vehicle control; higher = less cytotoxic
Settings: 10 µM; SRSF2 genotype: SRSF2 wt/wt
reported.property: cell viability (%)
// note: answer is a bare numeric in %

# count of solved cases: 3
Cc1cc(NS(=O)(=O)c2ccc(N)cc2)no1 [Sulfamethoxazole]: 95.6
OC[C@@H](O)[C@@H](O[C@@H]1O[C@H](CO)[C@H](O)[C@H](O)[C@H]1O)[C@H](O)[C@@H](O)CO: 100
O=P(O)(O)C(O)(Cc1cccnc1)P(=O)(O)O [Risedronate sodium]: 102

Continue with the compound presented below.
Query: cell viability; subject: Nc1c(CC(=O)O)cccc1C(=O)c1ccccc1 [Amfenac Sodium (monohydrate)]
101

====

Test system: K562
Experiment: cell viability relative to vehicle control; higher = less cytotoxic
Conditions: 10 µM; SRSF2 genotype: SRSF2 wt/wt
Structures can show the parent of a compound that is named as a salt.
Please respond with true (1) when measured cell viability is strictly beneath 80%, and with false (0) in all other cases.

Look over these answered cases.
Cc1ccc(OCC(O)C(C)NC(C)C)c2c1CCC2 (configuration not stated): false (0)
NC(=O)N1c2ccccc2C=Cc2ccccc21 [Carbamazepine (Carbatrol)]: false (0)
CCn1c2ccccc2c2cc(CNCc3ccccc3OC)ccc21 [HLCL-61 hydrochloride]: false (0)
Cc1cccc(Nc2cc(Cl)nc(SCC(=O)O)n2)c1C: false (0)
O[C@@H](COc1cccc2ncccc12)CN1CCN([C@@H]2c3ccccc3[C@@H]3[C@H](c4ccccc42)C3(F)F)CC1: true (1)
COc1ccc(S(=O)(=O)N(C(C)=O)c2ccccc2/C=C/c2cc[n+]([O-])cc2)cc1: true (1)

Field: below-cutoff. Rule: recorded cell viability strictly less than 80%. Subject: CCCS(=O)(=O)Nc1ccc(F)c(C(=O)c2c[nH]c3ncc(Cl)cc23)c1F
false (0)

// repeat for CCOC(=O)C1=C(COCCN)NC(C)=C(C(=O)OC)C1c1ccccc1Cl (configuration not stated) and report
false (0)

Next: C[C@@H](O)[C@H]1C(=O)N2C(C(=O)O)=C(S[C@@H]3CN[C@H](CNS(N)(=O)=O)C3)[C@H](C)[C@H]12 [Doripenem]
false (0)

What would you report for CC(C)CCN1c2nc(Nc3cc(F)c(O)c(F)c3)ncc2N(C)C(=O)C1C (configuration not stated) ?
true (1)

Likewise for C=CC[S+]([O-])C[C@H](N)C(=O)O (some centres not stated) ?
false (0)

Another: O=C1c2c(O)cc(O)cc2O[C@H](c2cc(O)c(O)c(O)c2)[C@H]1O [Dihydromyricetin (Ampeloptin)]
false (0)

Same thing, different compound: COc1cc(/C=C/C(=O)OC[C@H]2O[C@H](O[C@]3(CO)O[C@H](CO)[C@@H](O)[C@@H]3OC(=O)/C=C/c3cc(OC)c(O)c(OC)c3)[C@H](O)[C@@H](O)[C@@H]2O)cc(OC)c1O
false (0)

====

Tested on: MOLM14
Assay: cell viability relative to vehicle control; higher = less cytotoxic
Conditions: 10 µM; SRSF2 genotype: SRSF2 P95H/wt
// returns NOT MET unless cell viability is strictly below 80%, in which case MET

Cc1onc(-c2c(F)cccc2Cl)c1C(=O)N[C@@H]1C(=O)N2[C@@H]1SC(C)(C)[C@@H]2C(=O)O [Flucloxacillin sodium]: NOT MET

Query molecule follows.
State whether 80% exceeds cell viability recorded for CC(C)(C)NC(=O)c1cncn1C1CCN(c2ccc(-c3nnc(C(F)(F)F)o3)cn2)CC1 .
MET

====

Tested on: MARIMO
Assay: cell viability relative to vehicle control; higher = less cytotoxic
Settings: 10 µM; SRSF2 genotype: SRSF2 P95H/wt
// values below are reported cell viability
Report only the number, with the unit % understood.

O=C(C=CC=Cc1ccccc1)CCc1ccccc1: 92
Cc1ncc(COP(=O)(O)O)c(C=O)c1O [Pyridoxal 5-phosphate monohydrate]: 91.2

Pending molecule:
Looking for the measured cell viability of C[C@H]1CO[C@@H]2Cn3cc(C(=O)NCc4ccc(F)cc4F)c(=O)c(O)c3C(=O)N12 , can you help?
90.2

====

Tested on: MOLM14
Assay: cell viability relative to vehicle control; higher = less cytotoxic
Details: 10 µM; SRSF2 genotype: SRSF2 wt/wt
Counter-ions that a name gives are not always drawn.
Reported cell viability by item:
# number only, unit % dropped from output

Some compounds with recorded cell viability:
COc1cc(OC)c2c(=O)[nH]c(-c3cc(C)c(OCCO)c(C)c3)nc2c1: 81.3
CC(=O)O/N=C1\C(=O)N(Cc2cc(Cl)ccc2Cl)c2ccc(Cl)cc21: 90.7
O=[N+]([O-])c1ccc(Nc2ccccc2-c2ccccc2)c2nonc12: 95.2
CS(=O)(=O)c1ccc(-c2nnc(/C=C/c3nnc(-c4ccc(C#N)cc4)o3)n2-c2ccccc2Cl)nc1: 103
CCOc1ccccc1OCCN[C@H](C)Cc1ccc(OC)c(S(N)(=O)=O)c1: 98
Cc1cc(Nc2nc(N[C@@H](C)c3ccc(F)cc3)c(C#N)cc2F)n[nH]1: 3.5
CC(C)CC(=O)Nc1n[nH]c2c1CN(C(=O)C1CCN(C)CC1)C2(C)C: 1.14
COC(=O)[C@H](CCSC)NC(=O)c1ccc(NC[C@@H](N)CS)cc1-c1ccccc1: 90.1
CC1=CC(=O)c2ccccc2C1=O: 102
CCc1cc(Nc2nc(-c3ccc(-n4cnc(C)c4)c(F)c3)cs2)c(C)cc1C: 93.9

Request the reported cell viability associated with CC(C)=CCCC(C)(O)C1CCC2(C)C1C(O)CC1C3(C)CCC(O)C(C)(C)C3CCC12C [(20S)-Protopanaxadiol]
102

Now try OC[C@H]1O[C@H](OCC2O[C@@H](O)[C@H](O)[C@@H](O)[C@@H]2O)[C@H](O)[C@@H](O)[C@H]1O (some centres not stated) .
108

Lookup CCCCCCCCCCCCCCCc1cccc(O)c1C(=O)O
82.9

Follow-up entry: COc1cc2c(Nc3ccc(NC(=O)c4ccccc4)cc3)ncnc2cc1OCCCN1CCOCC1
10.3

Thanks! And Cc1ccccc1CN1C(=O)C2=C(CCN(Cc3ccccc3)C2)N2CCN=C12 ?
44.5

For C[C@@]12C[C@H](c3ccoc3)O[C@@]13C[C@H](OC3=O)[C@H]1[C@H]2C[C@@H]2C[C@H]1C(=O)O2 then?
110

Request: CC(C)NCC(O)c1ccc(O)c(O)c1 (configuration not stated) [Isoprenaline hydrochloride]
96.5

Check C[C@H](Oc1ccc(S(C)(=O)=O)cc1C(=O)N1CCN(c2ncc(C(F)(F)F)cc2F)CC1)C(F)(F)F too.
105

// query: C/C=C(/C)C(=O)O[C@H]1[C@@H](OC(=O)CC(C)C)c2c(ccc3ccc(=O)oc23)OC1(C)C
76.3

Then what about the compound CC[C@H]1OC(=O)[C@H](C)[C@@H](O[C@H]2C[C@@](C)(OC)[C@@H](O)[C@H](C)O2)[C@H](C)[C@@H](O[C@@H]2O[C@H](C)C[C@H](N(C)C)[C@H]2O)[C@](C)(OC)C[C@@H](C)C(=O)[C@H](C)[C@@H](O)[C@]1(C)O ?
104

====

Recorded cell viability, one value per entry.
Test system: MOLM14
Test: cell viability relative to vehicle control; higher = less cytotoxic
Details: 10 µM; SRSF2 genotype: SRSF2 P95H/wt
Counter-ions that a name gives are not always drawn.
Numeric only. Scale: %

Sample answers from the record:
CCn1cc(NC(=S)Nc2cc(Cl)ccc2OC)c(C(N)=O)n1: 96.9
CN1[C@@H]2CC[C@H]1C[C@@H](OC(=O)c1c[nH]c3ccccc13)C2 [Tropisetron HCl]: 104

Kindly review the next compound as well.
Record request: cell viability value, item O=C(/C=C/c1cncc(F)c1)c1c(-c2ccccc2)c2cc(Cl)ccc2[nH]c1=O
0.08

====

Test system: OCI-AML2
Test: cell viability relative to vehicle control; higher = less cytotoxic
Conditions: 10 µM; SRSF2 genotype: P95H/wt
reported.property: cell viability (%)
Please give a number only; it is taken to be in %.

Some solved cases for reference:
OC[C@H]1O[C@H](OC[C@H]2O[C@H](O[C@]3(CO)O[C@H](CO)[C@@H](O)[C@@H]3O)[C@H](O)[C@@H](O)[C@@H]2O)[C@H](O)[C@@H](O)[C@H]1O: 94.5
CC(C)C[C@@H]1NC(=O)[C@@H](C(C)C)NC(=O)[C@@H]2CCCN2C(=O)[C@@H](CC(=O)O)NC(=O)[C@@H](Cc2c[nH]c3ccccc23)NC1=O: 103
Cc1cccc2c3c(ccc12)C1=C(C(=O)C3=O)[C@@H](C)CO1 [Dihydrotanshinone I]: 0.43
CC[C@@H](N)CNc1ccnc(-c2cc(-c3cnn(C)c3)ccc2O)n1: 1.45
CC(C)CCn1c(CN2CCN(C(=O)C3CC3)CC2)nc2c1c(=O)n(C)c(=O)n2C: 114

OCI-AML2 / cell viability / CC(C)OC(=O)C(C(=O)OC(C)C)=C1SC=CS1 [Malotilate] : value?
85

Next record, please: CC1(C)CCC(CN2CCN(c3ccc(C(=O)NS(=O)(=O)c4ccc(NCC5CCOCC5)c([N+](=O)[O-])c4)c(Oc4cnc5[nH]ccc5c4)c3)CC2)=C(c2ccc(Cl)cc2)C1
1.25

Ok, now O=C(C=Cc1cccnc1)c1ccncc1
16.8

Continue with O=C(O)CCc1ccc(O)cc1
99.2

What would you report for CC[C@@]1(O)C(=O)OCc2c1cc1n(c2=O)Cc2cc3cc(O)ccc3nc2-1 [Hydroxy Camptothecine] ?
0.49

Now consider Cc1ccc([N+](=O)[O-])cc1S(=O)(=O)N(C)/N=C/c1cnc2ccc(Br)cn12 .
1.7

Thanks! And CCCCc1ccc(O)cc1O ?
85.7
